System: HSC1 (primary human Schwann cells)
Assay: drug sensitivity score (DSS, CellTox-Green cytotoxicity, 72 h) (DSS (dimensionless)); higher = more cytotoxic; extreme values may be limits of the assay
endpoint_label: drug sensitivity score
API note: the answer field is a bare number with no unit suffix.

Example compounds with recorded drug sensitivity score:
compound	target_or_test_system	drug sensitivity score
NC(=O)c1cccc2cn(-c3ccc(C4CCCNC4)cc3)nc12 (stereo not given) [MK-4827] (max concentration tested 10000 nM)	HSC1 (primary human Schwann cells)	0
C=CC[C@@H]1/C=C(\C)C[C@H](C)C[C@H](OC)[C@H]2O[C@@](O)(C(=O)C(=O)N3CCCC[C@H]3C(=O)O[C@H](/C(C)=C/[C@@H]3CC[C@@H](O)[C@H](OC)C3)[C@H](C)[C@@H](O)CC1=O)[C@H](C)C[C@@H]2OC [Tacrolimus] (max concentration tested 10000 nM)	HSC1 (primary human Schwann cells)	0
CC[C@@H]1C(=O)OC[C@@H]1Cc1cncn1C [Pilocarpine] (max concentration tested 40000 nM)	HSC1 (primary human Schwann cells)	0
CC(C)C[C@@H](C(=O)N[C@H](C(=O)OC1CCCC1)c1ccccc1)[C@H](O)C(=O)NO [Tosedostat] (max concentration tested 10000 nM)	HSC1 (primary human Schwann cells)	0
CC1(C)CCC(c2ccc(Cl)cc2)=C(CN2CCN(c3ccc(C(=O)NS(=O)(=O)c4ccc(N[C@H](CCN5CCOCC5)CSc5ccccc5)c(S(=O)(=O)C(F)(F)F)c4)cc3)CC2)C1 [Navitoclax] (max concentration tested 10000 nM)	HSC1 (primary human Schwann cells)	5.42
O=[N+]([O-])c1ccc2c(c1)S(=O)(=O)C=C2 [Stattic] (max concentration tested 50000 nM)	HSC1 (primary human Schwann cells)	15.6
CC(C)(C)Cn1c(N)nc2ccc(-c3[nH]c(C(C)(C)C)nc3-c3ccc(F)cc3)nc21 [Ralimetinib] (max concentration tested 10000 nM)	HSC1 (primary human Schwann cells)	0
CC(=O)N(O)CCCCCNC(=O)CCC(=O)N(O)CCCCCNC(=O)CCC(=O)N(O)CCCCCN [Deferoxamine aq] (max concentration tested 10000 nM)	HSC1 (primary human Schwann cells)	0

Q. GET /values?readout=drug sensitivity score&item= Nc1nc2[nH]cnc2c(=S)[nH]1 [Thioguanine] (max concentration tested 10000 nM)
A. 0

Q. Moving on to the next compound: CN(Cc1cnc2nc(N)nc(N)c2n1)c1ccc(C(=O)N[C@@H](CCC(=O)O)C(=O)O)cc1 [Methotrexate] (max concentration tested 5000 nM)
A. 0

---

Test system: YST-1
Assay: drug sensitivity score (DSS, CellTiter-Glo viability, 72 h) (DSS (dimensionless)); higher = more sensitive; extreme values may be limits of the assay
Here, each record is paired with measured drug sensitivity score data.
API note: the answer field is a bare number with no unit suffix.

compound	drug sensitivity score
Cc1nn(C)c(COc2ccc(N3CCN(S(=O)(=O)N(C)C)CC3)cc2)c1-c1cccc2c(CCCOc3cccc4ccccc34)c(C(=O)O)n(CCN3CCOCC3)c12 (max concentration tested 50000 nM)	6.72

Q. GET /values?readout=drug sensitivity score&item= CC1(C)CNc2cc(NC(=O)c3cccnc3NCc3ccncc3)ccc21 [Motesanib] (max concentration tested 10000 nM)
A. 0.25

Q. Moving on to the next compound: CC(C)(C)NC(=O)[C@H]1CC[C@H]2[C@@H]3CC[C@H]4NC(=O)C=C[C@]4(C)[C@H]3CC[C@]12C [Finasteride] (max concentration tested 10000 nM)
A. 0

Q. Moving on to the next compound: N[C@@H](Cc1ccc(N(CCCl)CCCl)cc1)C(=O)O [Melphalan] (max concentration tested 12500 nM)
A. 0

Q. Moving on to the next compound: COc1cc2c(cc1-c1c(C)noc1C)ncc1[nH]c(=O)n([C@H](C)c3ccccn3)c12 [I-BET151] (max concentration tested 10000 nM)
A. 7.27

Q. Moving on to the next compound: CCCCC(=O)OCC(=O)[C@]1(O)Cc2c(O)c3c(c(O)c2[C@@H](O[C@H]2C[C@H](NC(=O)C(F)(F)F)[C@H](O)[C@H](C)O2)C1)C(=O)c1c(OC)cccc1C3=O [Valrubicin] (max concentration tested 5000 nM)
A. 19.3

Q. Moving on to the next compound: Cc1c(Cn2c(C)nc3c(C(=O)O)cc(N4CCOCC4)cc32)cccc1C(F)(F)F (max concentration tested 10000 nM)
A. 0

---

Here, each record is paired with measured relative IC50 data.
Test system: ST8814
Experiment: relative IC50 (inflection point of fitted dose-response curve, CellTiter-Glo viability, 72 h; top asymptote may be below 50% inhibition); higher = less potent

Example compounds with recorded relative IC50:
compound	target_or_test_system	readout_value
NC(=O)c1cccc2cn(-c3ccc(C4CCCNC4)cc3)nc12 (stereo not drawn)	ST8814	1.65 µM
Cc1c(C(=O)Nc2ccc(N3C[C@@H](C)O[C@@H](C)C3)nc2)cccc1-c1ccc(OC(F)(F)F)cc1	ST8814	> 10 µM
Cc1cc2c(C(C)C)c(O)c(O)c(C=O)c2c(O)c1-c1c(C)cc2c(C(C)C)c(O)c(O)c(C=O)c2c1O	ST8814	7.15 µM
CNC(=O)c1cc(Oc2ccc(NC(=O)Nc3ccc(Cl)c(C(F)(F)F)c3)cc2)ccn1	ST8814	> 1 µM
CC(=O)O[C@]1(C(C)=O)CC[C@H]2[C@@H]3C=C(C)C4=CC(=O)CC[C@]4(C)[C@H]3CC[C@@]21C	ST8814	> 10 µM
Cc1nc(C(=O)NCC(=O)O)c(O)c2ccc(Oc3ccccc3)cc12	ST8814	> 10 µM

Q. GET /values?readout=relative IC50&item= O=NN(CCCl)C(=O)NCCCl
A. > 10 µM

Q. Moving on to the next compound: CCN(CC)CCCC(C)Nc1c2ccc(Cl)cc2nc2ccc(OC)cc12 (stereo not drawn)
A. 0.929 µM

---

Here, each record is paired with measured relative IC50 data.
Tested on: HS-Sch-2
Experiment: relative IC50 (inflection point of fitted dose-response curve, CellTiter-Glo viability, 72 h; top asymptote may be below 50% inhibition); higher = less potent
Write the value in nM as a bare number.

COc1cc2ncnc(Nc3ccc(F)c(Cl)c3)c2cc1OCCCN1CCOCC1 1900
COc1ccc(S(=O)(=O)Nc2cccnc2Nc2ccc(O)cc2)cc1 437

Now consider a different compound.
Q. GET /values?readout=relative IC50&item= CC(C)C[C@H](NC(=O)[C@H](CCc1ccccc1)NC(=O)CN1CCOCC1)C(=O)N[C@@H](Cc1ccccc1)C(=O)N[C@@H](CC(C)C)C(=O)[C@@]1(C)CO1
A. 2.75

---

Here, each record is paired with measured % inhibition data.
Tested on: HS-Sch-2
Assay: % inhibition of CellTiter-Glo viability at highest tested concentration (72 h), relative to DMSO and benzethonium chloride controls; higher = more inhibition
Write the value in % as a bare number.

Example molecules with recorded % inhibition:
molecule	% inhibition, %
N[C@@H]1CCCN(c2c(/C=C3\SC(=O)NC3=O)cccc2-c2ccccc2)C1 [AZD1208] (max concentration tested 10000 nM)	-3.67
C[C@@]1(C(=O)Nc2ccc(F)nc2)CCCN1c1nc(Nc2cc(C3CC3)n[nH]2)c2cccn2n1 (max concentration tested 10000 nM)	89.1
O=C(c1ccc(OCCN2CCCCC2)cc1)c1c(-c2ccc(O)cc2)sc2cc(O)ccc12 [Raloxifene] (max concentration tested 10000 nM)	85.8
C[C@@H]1CCN(C(=O)CC#N)C[C@@H]1N(C)c1ncnc2[nH]ccc12 [Tofacitinib] (max concentration tested 5000 nM)	-3.98
CCN1CCN(Cc2ccc(-c3cc4c(N[C@H](C)c5ccccc5)ncnc4[nH]3)cc2)CC1 [NVP-AEE788] (max concentration tested 2500 nM)	2.96

Now consider a different molecule.
Q. Request - read-out % inhibition | tested on HS-Sch-2 | molecule C[C@]12C=CC(=O)C=C1CC[C@@H]1[C@@H]2C(=O)C[C@@]2(C)[C@H]1CC[C@]2(O)C(=O)CO [Prednisone] (max concentration tested 10000 nM)
A. 12.9

---

System: HS-PSS
Assay: drug sensitivity score (DSS, CellTox-Green cytotoxicity, 72 h) (DSS (dimensionless)); higher = more cytotoxic; extreme values may be limits of the assay
endpoint_label: drug sensitivity score
API note: the answer field is a bare number with no unit suffix.

Example compounds with recorded drug sensitivity score:
compound	drug sensitivity score
CS(=O)(=O)CCNCc1ccc(-c2ccc3ncnc(Nc4ccc(OCc5cccc(F)c5)c(Cl)c4)c3c2)o1 [Lapatinib] (max concentration tested 1000 nM)	0
CNC(=O)c1ccc(N2C(=S)N(c3cnc(C#N)c(C(F)(F)F)c3)C(=O)C23CCC3)cc1F [ARN 509] (max concentration tested 10000 nM)	0
Cc1c(CN2CCN(C(=O)[C@H](C)O)CC2)sc2c(N3CCOCC3)nc(-c3cnc(N)nc3)nc12 [Apitolisib] (max concentration tested 10000 nM)	0
Cc1ccc(NC(=O)c2ccc(CN3CC[C@H](N(C)C)C3)c(C(F)(F)F)c2)cc1Nc1nccc(-c2cncnc2)n1 [Bafetinib] (max concentration tested 1000 nM)	0
CC(=O)OC[C@H]1O[C@@H]([S-])[C@H](OC(C)=O)[C@@H](OC(C)=O)[C@@H]1OC(C)=O.CCP(CC)CC.[Au+] [Auranofin] (max concentration tested 2500 nM)	1.15
CN[C@@H]1C[C@H]2O[C@@](C)([C@@H]1OC)n1c3ccccc3c3c4c(c5c6ccccc6n2c5c31)C(=O)N[C@H]4O [UCN-01] (max concentration tested 10000 nM)	6.62

Q. Request - read-out drug sensitivity score | tested on HS-PSS | compound COc1cc(Nc2ncc(F)c(Nc3ccc4c(n3)N(COP(=O)(O)O)C(=O)C(C)(C)O4)n2)cc(OC)c1OC [Fostamatinib] (max concentration tested 2500 nM)
A. 0

Q. Moving on to the next compound: COc1ccc(Cl)c(Nc2nc3ccccc3nc2NS(=O)(=O)c2cccc(NC(=O)C(C)(C)N)c2)c1 [Pilaralisib] (max concentration tested 2500 nM)
A. 0

Q. Moving on to the next compound: C=CCc1cccc(/C=N/NC(=O)CN2CCN(Cc3ccccc3)CC2)c1O [PAC-1] (max concentration tested 10000 nM)
A. 2.32

Q. Moving on to the next compound: NC1(c2ccc(-c3nc4ccn5c(=O)[nH]nc5c4cc3-c3ccccc3)cc2)CCC1 [MK-2206] (max concentration tested 1000 nM)
A. 0

Q. Moving on to the next compound: CC(C)N(CCCNC(=O)Nc1ccc(C(C)(C)C)cc1)C[C@H]1O[C@@H](n2cc(Br)c3c(N)ncnc32)[C@H](O)[C@@H]1O [SGC0946] (max concentration tested 10000 nM)
A. 2.32
